Molecular target: T1, IHF from Haemophilus influenzae (Haemophilus influenzae, UniProt P43723 1-96)
T1 construct: also called IHF (Hi); H. influenzae; not shown: poly-histidine tag
T1 sequence: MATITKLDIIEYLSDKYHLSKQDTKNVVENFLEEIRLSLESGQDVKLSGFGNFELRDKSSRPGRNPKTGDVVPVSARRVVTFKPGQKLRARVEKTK
Assay: ELISA
outcome measure: OD (OD)
Give bare numbers, in OD.

TRL1087 (antibody, V domains shown) VH: QVQLLESGPGLVRPSDTLSLTCTFSADLSTNAYWTWIRQPPGKGLEWIGYMSHSGGRDYNPSFNRRVTISVDTSKNQVFLRLTSVTSADTAVYFCVREVGSYYDYWGQGILVTVSS VL: DIEMTQSPSSLSASVGDRITITCRASQGISTWLAWYQQKPGKAPKSLIFSTSSLHSGVPSKFSGSGSGTDFTLTITNLQPEDFATYYCQQKWETPYSFGQGTKLDMIR : 0.06
TRL1230 (antibody, V domains shown) VH: QVQLVQSGGGLVKPGGSLRLSCGASGFNLSSYSMNWVRQAPGKGLEWVSSISSRSSYIYYADSVQGRFTISRDNAKNSLYLQMNSLRAEDTAIYYCARVSPSTYYYYGMDVWGQGTTVTVSS VL: DIVLTQPSSVSVSPGQTARITCSGDELPKQYAYWYQQKPGQAPVLVIYKDNERPSGIPERFSGSSSGTTVTLTISGVQAEDEADYYCQSADSSGTYVVFGGGTKLTVL : 0.06

Now take the following binder into account.
Requested read-out: OD. Entry: TRL1232 (antibody, V domains shown) VH: QVQLVESGAEVKKPGALVKVSCKASGYTFSGYYMHWVRQAPGQGLEWMGWINPKSGGTKYAQKFQGRVTMTRDTSISTAYMELSRLRSDDTAVYFCARGGPSNLERFLERLQPRYSYDDKYAMDVWGQGTTVTVSS VL: DIVMTQSPGTLSLSPGARATLSCRASQSVSSIYLAWYQQKPGQAPRLLIFGASSRATGIPDRFSGSGSGTDFTLTISRLEPEDFAVYYCQQYGSSPYTFGQGTKLEIKR
0.1
